- assayedTarget: T1, recombinant cynomolgus GPC3 (glypican-3) (cynomolgus monkey, UniProt A0A2K5VK50 24-558)
- T1 construct: also called cynoGPC3
- assayDetails: SPR; Kd on human GPC3 divided by Kd on cynomolgus GPC3

binder	Kd Fold difference (hu/cyno) [fold]
v40211, H18L6_LC_G34V mAb (antibody, human IgG1, kappa, V domains shown, no number given for this variant) VH: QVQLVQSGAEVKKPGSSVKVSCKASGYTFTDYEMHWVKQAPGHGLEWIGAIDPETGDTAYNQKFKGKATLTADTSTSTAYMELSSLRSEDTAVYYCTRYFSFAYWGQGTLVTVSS VL: EIVLTQSPATLSLSPGERATISCRSSQSLRHSNVNTYLQWYQQKPGQAPRLLIYKVSNRFSGVPARFSGSGSGTDFTLTISSLEPEDFAVYFCYQSKHVPYTFGGGTKVEIKR	1.13
v40208, H18L6_LC_G34Q mAb (antibody, human IgG1, kappa, V domains shown) VH: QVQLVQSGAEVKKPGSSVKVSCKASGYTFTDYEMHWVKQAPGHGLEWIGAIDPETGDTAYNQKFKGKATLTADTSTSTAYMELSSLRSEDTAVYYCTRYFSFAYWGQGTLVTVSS VL: EIVLTQSPATLSLSPGERATISCRSSQSLRHSNQNTYLQWYQQKPGQAPRLLIYKVSNRFSGVPARFSGSGSGTDFTLTISSLEPEDFAVYFCYQSKHVPYTFGGGTKVEIKR	1.48
v40205, H18L6_LC_G34H mAb (antibody, human IgG1, kappa, V domains shown, no number given for this variant) VH: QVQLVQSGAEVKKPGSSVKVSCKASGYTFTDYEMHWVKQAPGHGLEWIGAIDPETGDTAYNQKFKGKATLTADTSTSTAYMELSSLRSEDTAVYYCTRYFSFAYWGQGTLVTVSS VL: EIVLTQSPATLSLSPGERATISCRSSQSLRHSNHNTYLQWYQQKPGQAPRLLIYKVSNRFSGVPARFSGSGSGTDFTLTISSLEPEDFAVYFCYQSKHVPYTFGGGTKVEIKR	1.19
